Target: T1, monkey IL-25 expressed with a C-terminal myc-myc-hexahistidine tag (M. fascicularis (cynomolgus monkey))
T1 construct: also called Monkey IL-25-MMH; MfIL-25-MMH
T1 chain: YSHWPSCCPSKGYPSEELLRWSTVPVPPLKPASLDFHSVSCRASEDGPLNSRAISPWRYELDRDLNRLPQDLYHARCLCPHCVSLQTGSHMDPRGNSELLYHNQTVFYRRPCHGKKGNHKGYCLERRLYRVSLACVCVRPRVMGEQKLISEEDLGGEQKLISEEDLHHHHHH
Experiment: SPR Biacore, antibody captured, 37C;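 also: biacore 4000 surface plasmon resonance biosensor measuring binding of IL-25-MMH to purified anti-IL-25 antibodies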
Parameter measured: 100 nM Monkey IL-25-MMH Bound (RU)

>>> measured("H4H10876P (antibody, human IgG4, V domains shown, H4H prefix = human IgG4 Fc) VH: QVQLVQSGAEVKKPGASVKVSCKASEYTFSNYGISWVRQAPGQGLEWLGWIGAYSGFTKYAQKVQDRITMTTDASTTTAYMELRNLRSDDTAVYYCARVGTGTDSYFDFWGQGTLVTVSS VL: DIQMTQSPSSLSASVGDRVTITCRASQNINSHLNWYQQKPGKAPKLLIYTASSLQSGVPLRFSGSGSGTDFTLTISSLQPEDFGIYICQQTYITPLTFGGGTKVEIK")
64
